Could you please report measured half-life for the items listed next?
assay: Half life in mouse liver microsomes; conditions: microsomes
Numbers only, in h.

Worked set:
Cc1cccc(NC(=O)c2nc(C)n(-c3ccc(Cl)cc3)c2C)n1
1.35
Cc1cccc(NC(=O)c2nc(C)n(-c3ccc(F)c(Cl)c3)c2C)n1
1.17

Now examine the next entry.
Which half-life value is on record for Cc1nc(C(=O)Nc2ccnc(Cl)c2)c(C)n1-c1ccc(F)cc1 ?
5

====

assay: Half life in mouse liver microsomes; details: microsomes
EXPERIMENTAL_ENDPOINT: half-life
Write the figure, then the unit, nothing else.

Worked set:
Cc1nc(NC(=O)c2nn(C)c(-c3ccc(F)cc3)c2C)ccc1F
99 min
Cc1ccnc(NC(=O)c2nn(C)c(-c3ccc(F)cc3)c2C)c1
10 min
Cc1nc(C(=O)Nc2ccc(F)cn2)c(C)n1-c1ccc(F)cc1
32 min
Cc1cccc(NC(=O)c2nn(C)c(-c3ccc(F)c(F)c3)c2C)n1
42 min
Cc1cc(NC(=O)c2nn(C)c(-c3ccc(F)cc3)c2C)ccn1
84 min

Now examine the next entry.
Which half-life value is on record for Cc1csc(NC(=O)c2nn(C)c(-c3ccc(F)cc3)c2C)n1 ?
45 min

====

Could you please report measured half-life for the items listed next?
experiment: Half life in human liver microsomes; details: microsomes
One number for each entry, in h.

Worked set:
Cc1cccc(NC(=O)c2nc(C)n(-c3ccc(F)c(Cl)c3)c2C)n1
1.27
Cc1c(C(=O)Nc2cc(Cl)ccn2)nn(C)c1-c1ccc(F)cc1
2.1
Cc1nc(C(=O)Nc2ccnc(Cl)c2)c(C)n1-c1ccc(F)cc1
3.75
Cc1ccnc(NC(=O)c2nn(C)c(-c3ccc(F)cc3)c2C)c1
1.52
Cc1cccc(NC(=O)c2nc(C)n(-c3ccc(Cl)cc3)c2C)n1
0.9

Dear colleague, could you please provide half-life for the molecules listed below?
1. Cc1cc(NC(=O)c2nn(C)c(-c3ccc(F)cc3)c2C)ccn1
2. Cc1nc(NC(=O)c2nn(C)c(-c3ccc(F)cc3)c2C)ccc1F
3. Cc1csc(NC(=O)c2nn(C)c(-c3ccc(F)cc3)c2C)n1
4. Cc1cccc(NC(=O)c2nc(C)n(-c3ccc(F)cc3)c2C)n1

1. 1.28
2. 3.55
3. 2.03
4. 0.733

====

experiment: Intrinsic clearance in human hepatocytes assessed per 10^6 cells; type: ADME, cell-based, Hepatocyte; conditions: read-out: CLH
EXPERIMENTAL_ENDPOINT: hepatocyte CLint (µL/min/1e6 cells)
Answers are plain numbers, in µL/min/1e6 cells.

Which hepatocyte CLint value is on record for Cc1nc(C(=O)Nc2ccnc(Cl)n2)c(C)n1-c1ccc(F)cc1 ?
0.99

====

target: Metabotropic glutamate receptor 5 (Homo sapiens); assay: Negative allosteric modulation of human mGluR5 expressed in HEK293 cells assessed as calcium mobilization by FLIPR assay
Sequence (P41594 whole entry): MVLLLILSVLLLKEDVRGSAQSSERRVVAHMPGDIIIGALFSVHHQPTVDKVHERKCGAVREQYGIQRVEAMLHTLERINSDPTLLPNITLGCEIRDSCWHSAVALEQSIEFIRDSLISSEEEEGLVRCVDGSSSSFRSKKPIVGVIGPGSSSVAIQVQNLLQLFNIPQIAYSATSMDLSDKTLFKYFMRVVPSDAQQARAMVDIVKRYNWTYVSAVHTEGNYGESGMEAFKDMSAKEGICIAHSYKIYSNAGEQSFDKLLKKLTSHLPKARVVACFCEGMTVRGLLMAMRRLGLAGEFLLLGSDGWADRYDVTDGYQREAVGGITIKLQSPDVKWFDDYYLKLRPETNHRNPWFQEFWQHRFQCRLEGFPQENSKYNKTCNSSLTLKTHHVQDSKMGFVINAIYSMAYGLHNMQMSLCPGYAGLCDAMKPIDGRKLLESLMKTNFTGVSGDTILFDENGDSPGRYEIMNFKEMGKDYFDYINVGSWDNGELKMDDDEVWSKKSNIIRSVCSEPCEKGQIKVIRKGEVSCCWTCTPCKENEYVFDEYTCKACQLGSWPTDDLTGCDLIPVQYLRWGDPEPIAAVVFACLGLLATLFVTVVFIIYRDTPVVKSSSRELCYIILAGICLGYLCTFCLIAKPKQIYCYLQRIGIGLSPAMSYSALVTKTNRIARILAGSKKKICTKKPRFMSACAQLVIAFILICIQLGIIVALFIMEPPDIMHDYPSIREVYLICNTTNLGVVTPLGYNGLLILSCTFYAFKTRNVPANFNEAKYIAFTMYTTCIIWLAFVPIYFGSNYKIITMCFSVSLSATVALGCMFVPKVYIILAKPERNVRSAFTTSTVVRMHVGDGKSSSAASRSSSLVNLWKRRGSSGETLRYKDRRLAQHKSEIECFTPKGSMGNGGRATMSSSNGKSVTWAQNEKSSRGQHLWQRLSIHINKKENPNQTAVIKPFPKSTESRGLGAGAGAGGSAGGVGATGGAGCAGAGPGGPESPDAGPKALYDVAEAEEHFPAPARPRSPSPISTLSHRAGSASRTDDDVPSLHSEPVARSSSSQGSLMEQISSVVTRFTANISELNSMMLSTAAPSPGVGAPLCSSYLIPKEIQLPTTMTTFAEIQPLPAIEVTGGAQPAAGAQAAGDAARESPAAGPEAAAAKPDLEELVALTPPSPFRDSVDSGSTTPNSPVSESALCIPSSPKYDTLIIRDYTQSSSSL
Friendly reminder: IC50 below 0.04 µM is MET, at or above is NOT MET.

Below, 5 compounds whose answers are already recorded.
Cc1cccc(NC(=O)c2nn(C)c(-c3ccc(F)c(F)c3)c2C)n1
MET
Cc1cccc(NC(=O)c2nn(C)c(-c3ccc(N(C)C)cc3)c2C)n1
NOT MET
Cc1nc(NC(=O)c2nc(C)n(-c3ccc(F)cc3)c2C)ccc1F
NOT MET
Cc1ccc(-c2c(C)c(C(=O)Nc3cccc(C)n3)nn2C)cc1
MET
Cc1c(C(=O)Nc2ccnc(F)c2)nn(C)c1-c1ccc(F)cc1
NOT MET

Is IC50 strictly under 0.04 µM for the entry Cc1cccc(NC(=O)c2cc(-c3ccccc3)n(C)n2)n1 ?
NOT MET

Is IC50 strictly under 0.04 µM for the entry O=C(Nc1cccc(Cl)c1)c1noc2c1CCC2 ?
NOT MET

Is IC50 strictly under 0.04 µM for the entry Cc1cccc(NC(=O)c2nn(C)c(-c3ccc(F)cc3)c2C)n1 ?
MET

====

assay: Oral bioavailability in rat; type: ADME, organism-based; settings: in vivo
EXPERIMENTAL_ENDPOINT: bioavailability

Which bioavailability value is on record for Cc1cccc(NC(=O)c2nn(C)c(-c3ccc(F)cc3)c2C)n1 ?
< 2%

====

test: Half life in human liver microsomes; details: microsomes
EXPERIMENTAL_ENDPOINT: half-life

Cc1cccc(NC(=O)c2nn(C)c(-c3ccc(F)c(F)c3)c2C)n1
46 min
Cc1cccc(NC(=O)c2nn(C)c(-c3ccncc3)c2C)n1
42 min
Cc1nc(C(=O)Nc2ccc(F)cn2)c(C)n1-c1ccc(F)cc1
> 300 min
Cc1cccc(NC(=O)c2nc(C)n(-c3ccc(C(F)(F)F)cc3)c2C)n1
> 300 min

Which half-life value is on record for Cc1cccc(NC(=O)c2nn(C)c(-c3cccc(Cl)c3)c2C)n1 ?
120 min

====

biological target: hERG (KCNH2) (Homo sapiens, UniProt Q12809); test: Inhibition of human ERG at 10 uM
Sequence (Q12809 whole entry): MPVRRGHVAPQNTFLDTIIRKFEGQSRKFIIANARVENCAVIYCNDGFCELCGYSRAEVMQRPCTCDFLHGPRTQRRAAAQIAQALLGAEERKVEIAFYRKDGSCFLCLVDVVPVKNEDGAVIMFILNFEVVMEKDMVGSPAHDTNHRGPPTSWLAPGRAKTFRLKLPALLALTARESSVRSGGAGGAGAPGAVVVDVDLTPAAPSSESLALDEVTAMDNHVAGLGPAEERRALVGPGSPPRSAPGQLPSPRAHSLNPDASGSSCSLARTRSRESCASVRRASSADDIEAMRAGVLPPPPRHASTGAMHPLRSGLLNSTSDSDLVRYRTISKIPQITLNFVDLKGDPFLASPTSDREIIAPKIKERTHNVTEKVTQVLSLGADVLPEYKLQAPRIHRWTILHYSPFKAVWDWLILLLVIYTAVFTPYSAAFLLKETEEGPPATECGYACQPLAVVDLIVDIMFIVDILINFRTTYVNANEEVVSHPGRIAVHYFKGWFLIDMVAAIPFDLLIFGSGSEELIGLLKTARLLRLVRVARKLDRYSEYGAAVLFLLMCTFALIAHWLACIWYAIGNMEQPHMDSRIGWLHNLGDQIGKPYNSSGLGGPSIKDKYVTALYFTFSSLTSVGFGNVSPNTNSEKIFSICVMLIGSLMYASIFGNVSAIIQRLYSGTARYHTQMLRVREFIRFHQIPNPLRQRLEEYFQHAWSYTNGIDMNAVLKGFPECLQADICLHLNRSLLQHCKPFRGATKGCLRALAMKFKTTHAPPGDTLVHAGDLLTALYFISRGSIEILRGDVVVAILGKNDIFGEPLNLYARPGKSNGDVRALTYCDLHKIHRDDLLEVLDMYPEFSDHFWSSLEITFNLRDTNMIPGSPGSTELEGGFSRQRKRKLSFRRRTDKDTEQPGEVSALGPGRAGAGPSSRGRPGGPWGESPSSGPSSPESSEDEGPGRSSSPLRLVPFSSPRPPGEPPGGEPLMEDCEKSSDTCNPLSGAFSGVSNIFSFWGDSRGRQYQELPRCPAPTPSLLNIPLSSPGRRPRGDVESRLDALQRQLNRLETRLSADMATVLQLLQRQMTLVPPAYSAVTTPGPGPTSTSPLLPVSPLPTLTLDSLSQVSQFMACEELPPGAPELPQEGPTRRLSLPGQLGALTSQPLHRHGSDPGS
EXPERIMENTAL_ENDPOINT: inhibition at 10 µM (%)
Answers are plain numbers, in %.

Which inhibition at 10 µM value is on record for Cc1nc(C(=O)Nc2ccnc(Cl)n2)c(C)n1-c1ccc(F)cc1 ?
13

====

experiment: Ratio of drug level in brain to plasma in Sprague-Dawley rat at 10 mg/kg, ip after 1 hr; assay type: ADME, organism-based; parameters: dose 10 mg/kg, route intraperitoneal; conditions: brain and plasma, read-out: BPR
EXPERIMENTAL_ENDPOINT: Kp at 1 h
Give bare numbers.

Which Kp at 1 h value is on record for Cc1nc(C(=O)Nc2ccnc(Cl)n2)c(C)n1-c1ccc(F)cc1 ?
1.63

====

Could you please report measured half-life for the items listed next?
experiment: Half life in mouse liver microsomes; conditions: microsomes
Answers are plain numbers, in min.

Cc1c(C(=O)Nc2cc(Cl)ccn2)nn(C)c1-c1ccc(F)cc1
24

Dear colleague, could you please provide half-life for the compounds listed below?
1. Cc1c(C(=O)Nc2ccc(F)cn2)nn(C)c1-c1ccc(F)cc1
2. Cc1cccc(NC(=O)c2nn(C)c(-c3cccc(Cl)c3)c2C)n1
3. Cc1cccc(NC(=O)c2nc(C)n(-c3ccc(F)cc3)c2C)n1
4. Cc1cccc(NC(=O)c2nn(C)c(-c3ccncc3)c2C)n1

[39, 32, 18, 8]

====

assay: Half life in rat liver microsomes; details: liver microsomes
EXPERIMENTAL_ENDPOINT: half-life
Write the figure, then the unit, nothing else.

Cc1c(C(=O)Nc2cccc(Cl)n2)nn(C)c1-c1ccc(F)cc1
1.8 h

Dear colleague, could you please provide half-life for the compounds listed below?
1. Cc1c(C(=O)Nc2cccc(C(F)(F)F)n2)nn(C)c1-c1ccc(F)cc1
2. Cc1c(C(=O)Nc2ccc(Cl)cn2)nn(C)c1-c1ccc(F)cc1

1: 0.967 h; 2: 3.65 h

Dear colleague, could you please provide half-life for the compounds listed below?
1. Cc1cccc(NC(=O)c2nc(C)n(-c3ccc(Cl)c(Cl)c3)c2C)n1
2. COc1ccc(-c2c(C)c(C(=O)Nc3cccc(C)n3)nn2C)cc1

1. 2.23 h
2. 1.58 h

====

experiment: Half life in mouse liver microsomes; conditions: liver microsomes
EXPERIMENTAL_ENDPOINT: half-life (h)
Answers are plain numbers, in h.

Dear colleague, could you please provide half-life for the compounds listed below?
1. Cc1cccc(NC(=O)c2nn(C)c(-c3ccc(Cl)c(Cl)c3)c2C)n1
2. Cc1nc(C(=O)Nc2cccc(F)n2)c(C)n1-c1ccc(F)cc1

3.25
0.617

Dear colleague, could you please provide half-life for the compounds listed below?
1. Cc1c(C(=O)Nc2cccc(Cl)n2)nn(C)c1-c1ccc(F)cc1
2. Cc1c(C(=O)Nc2cccc(C(F)(F)F)n2)nn(C)c1-c1ccc(F)cc1
3. Cc1cccc(NC(=O)c2nn(C)c(-c3cc(F)cc(F)c3)c2C)n1

1: 1.93; 2: 1.63; 3: 0.3

Dear colleague, could you please provide half-life for the compounds listed below?
1. Cc1cccc(NC(=O)c2nn(C)c(-c3ccc(F)cc3F)c2C)n1
2. Cc1ccc(NC(=O)c2nn(C)c(-c3ccc(F)cc3)c2C)nc1
3. Cc1cccc(NC(=O)c2nn(C)c(-c3ccc(F)cc3)c2C)n1
4. Cc1cccc(NC(=O)c2nc(C)n(-c3ccc(Cl)c(Cl)c3)c2C)n1
5. Cc1c(C(=O)Nc2ccc(Cl)cn2)nn(C)c1-c1ccc(F)cc1
6. COc1ccc(-c2c(C)c(C(=O)Nc3cccc(C)n3)nn2C)cc1

[0.633, 0.217, 0.6, 1.55, 0.267, 1.18]

Dear colleague, could you please provide half-life for the compounds listed below?
1. Cc1nc(NC(=O)c2nc(C)n(-c3ccc(F)cc3)c2C)ccc1F
2. Cc1cccc(NC(=O)c2nn(C)c(-c3ccc(C(F)(F)F)cc3)c2C)n1
3. Cc1nc(C(=O)Nc2ccnc(Cl)n2)c(C)n1-c1ccc(F)cc1
4. Cc1nc(C(=O)Nc2cccc(C(F)(F)F)n2)c(C)n1-c1ccc(F)cc1

1.43
3.23
4.63
2.63

Dear colleague, could you please provide half-life for the compounds listed below?
1. Cc1cccc(NC(=O)c2nn(C)c(C3CCCCC3)c2C)n1
2. Cc1cccc(NC(=O)c2nn(C)c(-c3ccccc3)c2C)n1

[0.467, 0.3]

Origin of measurements: ChEMBL document CHEMBL2346654
